- Tested on: HPPD polypeptides
- TEST METHOD NOTES: coupled HPPD activity assay: turnover and residual turnover in crude extracts
- Type: biochemical, Pseudomonas fluorescens
- TEST CONDITIONS: presence of 100 μM Cmpd. 1; high substrate concentration; changes in absorbance (OD) at 320 nm
PROPERTY: Residual turnover
Just the number, please, no unit after it.

**Query** Quick one: Residual turnover for 50 (protein, mutant HPPD polypeptide) MADLYENPMGLMGFEFIEFASPTPGTLEPIFEIMGFTKVATHRSKNVHLYRQGEINLILNNEPNSIASYFAAEHGPSVCGMAFRVKDSQKAYNRALELGAQPIHIDTGPMELNLPAIKGIGGAPLYLIDRFGEGSSIYDIDFVYLEGVERNPVGAGLKVIDHLTHNVYRGRMVYWANFYEKLFNFREARYFDIKGEYTGLTSKAMSAPDGMIRIPLNEESSKGAGQIEEFLMQFNGEGIQHVAFLTDDLVKTWDALKKIGMRFMTAPSDNYYEMLEGRLPDHGEPVDQLQARGILLDGSSVEGDKRLLLQIFSETLMGPVFFEFIQRKGDDGFGPHSFKVLFEQMERDQVRRGVLTAD ?
**Result** 0.138

Data provenance: patent US11180770B2
